Target: CAII (Homo sapiens)
Construct: made in house; host or cells: E. coli
Assay: biochemical
Assay type: binding
Details: 37 °C; calculated (Equation 5)
Reported Property: Intrinsic Gibbs energy change (ΔGint), CAII (kcal/mol)
Report as a plain number; the unit kcal/mol is understood.

Item: COC(=O)CCN(c1ccc(S(N)(=O)=O)cc1)c1nc(C)cs1 [Compound 28] | Intrinsic Gibbs energy change (ΔGint), CAII: -15.3

Per the records, this compound ( Cc1csc(N(CCC(=O)O)c2ccc(S(N)(=O)=O)cc2)n1 [Compound 27] ) has Intrinsic Gibbs energy change (ΔGint), CAII equal to -14.7

CCOC(=O)c1sc(N(CCC(=O)NN)c2ccc(S(N)(=O)=O)cc2)nc1C [Compound 33] has a reported Intrinsic Gibbs energy change (ΔGint), CAII of -13.8

Form: compound = NS(=O)(=O)c1ccc(N(CCC(=O)O)c2nc(-c3ccc(Cl)cc3)c(Cl)s2)cc1 [Compound 36] ; Intrinsic Gibbs energy change (ΔGint), CAII = -15.5

For record CCOC(=O)c1sc(N(CCC(=O)O)c2ccc(S(N)(=O)=O)cc2)nc1C [Compound 31] the listed Intrinsic Gibbs energy change (ΔGint), CAII is -13.5

get_value(item= Cc1csc(N(CCC(=O)NN)c2ccc(S(N)(=O)=O)cc2)n1 [Compound 29] , readout=Intrinsic Gibbs energy change (ΔGint), CAII) returns -14.3

Value of measured Intrinsic Gibbs energy change (ΔGint), CAII for the entry CCOC(=O)c1sc(N(CCC(=O)OC)c2ccc(S(N)(=O)=O)cc2)nc1C [Compound 32] : -14.6

----------
Biological target: CAIV (Homo sapiens, UniProt P22748)
Construct: made in house; host or cells: E. coli
Sequence (P22748 19-312): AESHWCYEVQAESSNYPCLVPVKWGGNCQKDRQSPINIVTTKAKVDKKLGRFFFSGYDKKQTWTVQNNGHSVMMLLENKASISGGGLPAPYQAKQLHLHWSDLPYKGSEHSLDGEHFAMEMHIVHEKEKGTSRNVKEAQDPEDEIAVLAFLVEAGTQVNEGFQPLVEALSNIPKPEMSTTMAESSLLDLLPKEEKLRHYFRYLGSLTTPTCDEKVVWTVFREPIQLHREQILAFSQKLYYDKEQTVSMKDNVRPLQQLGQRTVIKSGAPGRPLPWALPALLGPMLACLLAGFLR
Assay: Fluorescent thermal shift assay (FTSA), CAIV
Assay type: binding
Settings: 37 °C; calculated (Equation 5)
Reported Property: Intrinsic Gibbs energy change (ΔGint), CAIV (kcal/mol)
Quick note: give the figure in kcal/mol, leave out the unit.

Would you please look over these solved cases?
[[record]]
compound = "COC(=O)CCN(c1ccc(S(N)(=O)=O)cc1)c1nc(C)cs1"
number = -13.6

[[record]]
compound = "Cc1csc(N(CCC(=O)O)c2ccc(S(N)(=O)=O)cc2)n1"
number = -13.9

[[record]]
compound = "CCOC(=O)c1sc(N(CCC(=O)OC)c2ccc(S(N)(=O)=O)cc2)nc1C"
number = -12.7

[[record]]
compound = "Cc1csc(N(CCC(=O)NN)c2ccc(S(N)(=O)=O)cc2)n1"
number = -13.7

[[record]]
compound = "NS(=O)(=O)c1ccc(N(CCC(=O)O)c2nc(-c3ccc(Cl)cc3)c(Cl)s2)cc1"
number = -13.1


So, `CCOC(=O)c1sc(N(CCC(=O)NN)c2ccc(S(N)(=O)=O)cc2)nc1C` ? Its Intrinsic Gibbs energy change (ΔGint), CAIV was -13

Measured Intrinsic Gibbs energy change (ΔGint), CAIV, `CCOC(=O)c1sc(N(CCC(=O)O)c2ccc(S(N)(=O)=O)cc2)nc1C` : -12.5

----------
Molecular target: CAXIII (Homo sapiens)
Experiment: biochemical
Settings: Kd_obs, FTSA
pKd: −log10 of the molar value.
Let's look at some compounds and their measured pKd.

[[record]]
compound = "NNC(=O)CC(CNc1ccc(S(N)(=O)=O)cc1Cl)C(=O)NN (centres unmarked)"
reported_property = "pKd"
result = "3.89 to 6.08"


Below: the item to evaluate.
// sample NNC(=O)CC(CNc1ccc(S(N)(=O)=O)cc1)C(=O)NN (centres unmarked) , its pKd was 3.89 to 6.08

----------
Molecular target: CAVB (Homo sapiens)
Construct: made in house; host or cells: E. coli
Sequence (Q9Y2D0 34-317): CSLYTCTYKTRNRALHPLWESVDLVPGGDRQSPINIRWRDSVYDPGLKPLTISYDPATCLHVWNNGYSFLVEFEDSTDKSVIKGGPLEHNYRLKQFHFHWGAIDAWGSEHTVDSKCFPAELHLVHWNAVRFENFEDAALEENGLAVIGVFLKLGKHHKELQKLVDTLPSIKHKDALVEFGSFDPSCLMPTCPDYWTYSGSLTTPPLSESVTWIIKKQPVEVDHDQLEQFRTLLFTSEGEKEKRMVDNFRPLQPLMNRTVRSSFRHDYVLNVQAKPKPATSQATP
Experiment: Fluorescent thermal shift assay (FTSA), CAVB
Assay type: binding
Conditions: 37 °C; calculated (Equation 5)
Intrinsic Gibbs energy change (ΔGint), CAVB of -60 kJ/mol or higher: TRUE. Under -60 kJ/mol: FALSE.

[[record]]
compound = "CCOC(=O)c1sc(N(CCC(=O)O)c2ccc(S(N)(=O)=O)cc2)nc1C"
label_class = "TRUE"

[[record]]
compound = "Cc1csc(N(CCC(=O)NN)c2ccc(S(N)(=O)=O)cc2)n1"
label_class = "FALSE"

[[record]]
compound = "CCOC(=O)c1sc(N(CCC(=O)OC)c2ccc(S(N)(=O)=O)cc2)nc1C"
label_class = "FALSE"


Consider now this further compound.
Ask: hey, is Intrinsic Gibbs energy change (ΔGint), CAVB for this one >= -60 kJ/mol? `COC(=O)CCN(c1ccc(S(N)(=O)=O)cc1)c1nc(C)cs1`
Result: FALSE

----------
Target: CAII (Homo sapiens);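 also: recombinant human CAII, thermal shift with ANS dye fluorescence, Kd_obs from fitting melting temperature versus ligand concentration, intrinsic values corrected for deprotonated sulfonamide and Zn-bound water fractions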
Construct: made in house; host or cells: E. coli
Assay: biochemical
Type: binding
Details: FTSA, pH 7.0, 37 °C; read-out: Observed Dissociation Constant (Kd_obs), CAII
just bin them by Kd: low interval: < 300 nM; middle interval: ≥ 300 nM and < 2000 nM; high interval: ≥ 2000 nM

[[record]]
compound = "NS(=O)(=O)c1ccc(NCC(CC(=O)NN=Cc2ccc(O)cc2)C(=O)NN=Cc2ccc(O)cc2)cc1 (stereo not drawn)"
label_class = "middle interval"


Below: the item to evaluate.
Ask: # bin lookup: classify CNC(=S)NNC(=O)CC(CNc1ccc(S(N)(=O)=O)cc1)C(=O)NNC(=S)NC (stereo not drawn) [Compound 22a] by its Kd
Result: high interval

----------
The entries below are paired with their reported pKd.
Molecular target: CAIX (Homo sapiens, UniProt Q16790)
Construct: made in house
Assay: biochemical
Assay type: binding
Settings: Observed Dissociation Constant (Kd_obs), CAIX, FTSA, pH 7.0, 37 °C
Lab note: report pKd as minus log10 of the concentration in molar units, number only.

[[record]]
molecule = "NS(=O)(=O)c1ccc(NCC(CC(=O)NN=Cc2ccc(F)cc2)C(=O)NN=Cc2ccc(F)cc2)c(Cl)c1 (centres unmarked) [Compound 13b]"
target = "CAIX (Homo sapiens, UniProt Q16790)"
reported_property = "pKd"
number = 6.48


So, NS(=O)(=O)c1ccc(NCC(CC(=O)NN=Cc2ccc([N+](=O)[O-])cc2)C(=O)NN=Cc2ccc([N+](=O)[O-])cc2)c(Cl)c1 (centres unmarked) [Compound 17b] ? Its pKd was 5.85

----------
Target: CAIX (Homo sapiens, UniProt Q16790)
Construct: made in house
Assay: biochemical
Type: binding
Conditions: FTSA, pH 7.0, 37 °C; read-out: Observed Dissociation Constant (Kd_obs), CAIX
Reported Property: Kd (nM)
Answer with a number only, understood to be in nM.

Use the examples below as a reference point.
[[record]]
compound = "NS(=O)(=O)c1ccc(N(CCC(=O)O)c2nc(-c3ccc(Cl)cc3)c(Cl)s2)cc1"
reported_property = "Kd"
number = 23

[[record]]
compound = "NS(=O)(=O)c1ccc(NCC(Cc2n[nH]c(=S)n2-c2ccccc2)c2n[nH]c(=S)n2-c2ccccc2)cc1 (stereo not shown) [Compound 25a]"
reported_property = "Kd"
number = 100

[[record]]
compound = "NS(=O)(=O)c1ccc(NCC(CC(=O)NN=Cc2cccc(O)c2)C(=O)NN=Cc2cccc(O)c2)c(Cl)c1 (stereo not shown)"
reported_property = "Kd"
number = 100


Form field, Kd with CAIX (Homo sapiens, UniProt Q16790), item CC(=NNC(=O)CC(CNc1ccc(S(N)(=O)=O)cc1)C(=O)NN=C(C)c1ccccc1)c1ccccc1 (stereo not shown) : 590

----------
Overview of recorded Kd for various molecules
Target: UniProt Q8N1Q1
Test: biochemical
Conditions: Observed Dissociation Constant (Kd_obs), FTSA, pH 7.0, 37 °C
State just the number; it will be interpreted in nM.

Example cases with answers are listed next.
[[record]]
molecule = "CCOC(=O)c1sc(N(CCC(=O)O)c2ccc(S(N)(=O)=O)cc2)nc1C"
target = "UniProt Q8N1Q1"
number = 450

[[record]]
molecule = "COC(=O)CCN(c1ccc(S(N)(=O)=O)cc1)c1nc(C)cs1"
target = "UniProt Q8N1Q1"
number = 250

[[record]]
molecule = "NS(=O)(=O)c1ccc(NCC(CC(=O)NN=Cc2ccc(O)cc2)C(=O)NN=Cc2ccc(O)cc2)cc1 (stereo not shown)"
target = "UniProt Q8N1Q1"
number = 4300


Reported Kd of CNC(=S)NNC(=O)CC(CNc1ccc(S(N)(=O)=O)cc1Cl)C(=O)NNC(=S)NC (stereo not shown) [Compound 22b] : 1700

----------
Target: CAXIII (Homo sapiens, UniProt Q8N1Q1)
Sequence (Q8N1Q1 whole entry): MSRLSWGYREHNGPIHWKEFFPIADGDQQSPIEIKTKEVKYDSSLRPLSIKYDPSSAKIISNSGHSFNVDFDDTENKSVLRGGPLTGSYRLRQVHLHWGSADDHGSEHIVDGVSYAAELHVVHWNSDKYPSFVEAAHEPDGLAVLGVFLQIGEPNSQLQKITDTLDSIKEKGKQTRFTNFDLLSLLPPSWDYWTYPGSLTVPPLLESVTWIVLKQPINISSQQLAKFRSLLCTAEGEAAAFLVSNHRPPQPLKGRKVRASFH
Assay: biochemical
Details: Observed Dissociation Constant (Kd_obs), FTSA, pH 7.0, 37 °C
Each item that follows carries a reported Kd.
Record the value in µM, omitting the unit from your answer.

The following compounds have reported results that may help.
[[record]]
compound = "NS(=O)(=O)c1ccc(NCC(CC(=O)NN=Cc2ccc(C(=O)O)cc2)C(=O)NN=Cc2ccc(C(=O)O)cc2)c(Cl)c1 (stereo not drawn) [Compound 18b]"
number = 1.8

[[record]]
compound = "COc1ccc(C=NNC(=O)CC(CNc2ccc(S(N)(=O)=O)cc2)C(=O)NN=Cc2ccc(OC)cc2)cc1 (stereo not drawn) [Compound 14a]"
number = 23

[[record]]
compound = "Cc1csc(N(CCC(=O)NN=Cc2ccccc2)c2ccc(S(N)(=O)=O)cc2)n1"
number = 8.3

[[record]]
compound = "NS(=O)(=O)c1ccc(NCC(CC(=O)NN=Cc2ccccc2)C(=O)NN=Cc2ccccc2)c(Cl)c1 (stereo not drawn)"
number = 0.18

[[record]]
compound = "NS(=O)(=O)c1ccc(NCC(CC(=O)NN=Cc2cccc([N+](=O)[O-])c2)C(=O)NN=Cc2cccc([N+](=O)[O-])c2)cc1 (stereo not drawn) [Compound 16a]"
number = 14


Okay, now this compound:
Given item Cn1c(CC(CNc2ccc(S(N)(=O)=O)cc2Cl)c2n[nH]c(=S)n2C)n[nH]c1=S (stereo not drawn) [Compound 24b] , the value recorded as its Kd is 1.3
